Recorded Fold KD vs WT, one value per entry.
target system: T1, CD30 fused to the Fc region of IgG1 (R&D Systems) (UniProt P28908 19-379)
T1 sequence (looked up): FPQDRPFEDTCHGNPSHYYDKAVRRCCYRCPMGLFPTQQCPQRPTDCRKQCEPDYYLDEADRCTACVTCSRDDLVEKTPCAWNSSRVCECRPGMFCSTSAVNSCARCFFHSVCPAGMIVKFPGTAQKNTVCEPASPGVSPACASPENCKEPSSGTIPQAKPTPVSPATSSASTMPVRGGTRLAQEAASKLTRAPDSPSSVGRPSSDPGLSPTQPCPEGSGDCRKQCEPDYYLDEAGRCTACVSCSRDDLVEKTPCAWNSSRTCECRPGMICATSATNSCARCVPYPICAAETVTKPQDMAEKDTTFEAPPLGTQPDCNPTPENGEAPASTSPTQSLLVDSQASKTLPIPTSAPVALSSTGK
measurement notes: SPR, CD30-Fc on Protein A chip
Answer with a number only, understood to be in fold.

Example entries begin here.
INSERT INTO assay_data (binder, experimental_result) VALUES
  ('AC10 H2/L2 full length antibody (antibody, V domains shown) VH: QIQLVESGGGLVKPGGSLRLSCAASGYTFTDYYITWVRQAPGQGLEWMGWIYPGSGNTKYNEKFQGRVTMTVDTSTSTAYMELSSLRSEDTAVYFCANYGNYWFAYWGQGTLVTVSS VL: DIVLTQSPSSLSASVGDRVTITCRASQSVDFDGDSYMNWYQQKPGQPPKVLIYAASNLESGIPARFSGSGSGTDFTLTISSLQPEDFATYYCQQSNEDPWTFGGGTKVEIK', 0.57),
  ('AC10 H0/L3 full length antibody (antibody, V domains shown) VH: QIQLQQSGPEVVKPGASVKISCKASGYTFTDYYITWVKQKPGQGLEWIGWIYPGSGNTKYNEKFKGKATLTVDTSSSTAFMQLSSLTSEDTAVYFCANYGNYWFAYWGQGTQVTVSA VL: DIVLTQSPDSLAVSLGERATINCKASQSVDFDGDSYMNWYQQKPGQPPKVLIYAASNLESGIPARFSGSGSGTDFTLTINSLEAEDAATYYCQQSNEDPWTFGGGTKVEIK', 1.13);

get_value(item= AC10 H3/L2 full length antibody (antibody, V domains shown) VH: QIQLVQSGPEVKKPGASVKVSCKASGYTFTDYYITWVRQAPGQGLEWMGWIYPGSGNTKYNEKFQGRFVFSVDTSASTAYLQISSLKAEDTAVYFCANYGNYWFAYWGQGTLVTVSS VL: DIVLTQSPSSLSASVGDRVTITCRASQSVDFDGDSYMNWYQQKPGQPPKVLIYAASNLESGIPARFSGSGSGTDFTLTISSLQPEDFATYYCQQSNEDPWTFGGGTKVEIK , readout=Fold KD vs WT) returns 1.19

Values were extracted from patent US7657380.
